Experiment: physchem
Conditions: octanol/water, pH 7.4
readout_label: logD
# output: bare number, no unit

Solved cases below.
NC(=O)[C@@H](CCC(F)(F)F)N(C[C@@H]1CCOC1)S(=O)(=O)c1ccc(Cl)cc1	2.8
NC(=O)[C@@H](CCC(F)(F)F)N(C[C@H]1COCCO1)S(=O)(=O)c1ccc(Cl)cc1	2.75
NC(=O)[C@@H](CCC(F)(F)F)N(C[C@H]1CCCOC1)S(=O)(=O)c1ccc(Cl)cc1	3.6

get_value(item= `NC(=O)[C@@H](CCC(F)(F)F)N(C[C@@H]1CCCO1)S(=O)(=O)c1ccc(Cl)cc1` , readout=logD) returns 3.5

get_value(item= `CC1(C)C[C@@H](CN([C@H](CCC(F)(F)F)C(N)=O)S(=O)(=O)c2ccc(Cl)cc2)O1` , readout=logD) returns 3.8

----------
Below: a set of entries, each annotated with reported logD.
Assay: physchem
Settings: octanol/water, pH 7.4
# output: bare number, no unit

Solved cases below.
NC(=O)[C@@H](CCC(F)(F)F)N(C[C@H]1CCOC1)S(=O)(=O)c1ccc(Cl)cc1	2.8
NC(=O)[C@@H](CCC(F)(F)F)N(CC1CCCC1)S(=O)(=O)c1ccc(Cl)cc1	5.15
NC(=O)[C@@H](CCC(F)(F)F)N(C[C@H]1CCCO1)S(=O)(=O)c1ccc(Cl)cc1	3.6
NC(=O)[C@@H](CCC(F)(F)F)N(CC1COC1)S(=O)(=O)c1ccc(Cl)cc1	2.5
NC(=O)[C@@H](CCC(F)(F)F)N(CC1CCOCC1)S(=O)(=O)c1ccc(Cl)cc1	3.5
CC1(C)C[C@H](CN([C@H](CCC(F)(F)F)C(N)=O)S(=O)(=O)c2ccc(Cl)cc2)O1	3.8
CC1(C)CO[C@H]1CN([C@H](CCC(F)(F)F)C(N)=O)S(=O)(=O)c1ccc(Cl)cc1	3.8
NC(=O)[C@@H](CCC(F)(F)F)N(C[C@@H]1CCCOC1)S(=O)(=O)c1ccc(Cl)cc1	3.7

// next entry
get_value(item= `CC1(C)CO[C@@H]1CN([C@H](CCC(F)(F)F)C(N)=O)S(=O)(=O)c1ccc(Cl)cc1` , readout=logD) returns 3.9

----------
Assay: Apparent permeability from apical to basolateral side of dog RRCK cells by transwell assay
Type: ADME, cell-based, Canis lupus familiaris, MDCKII-LE
Details: MDCK
Kindly return True if reported Papp A→B is no lower than 20 ×10⁻⁶ cm/s; return False if it is lower.

# example entries with known answers
NC(=O)[C@@H](CCC(F)(F)F)N(C[C@@H]1CCCOC1)S(=O)(=O)c1ccc(Cl)cc1	False
NC(=O)[C@@H](CCC(F)(F)F)N(C[C@@H]1COCCO1)S(=O)(=O)c1ccc(Cl)cc1	True

Determine whether this compound has Papp A→B no lower than 20 ×10⁻⁶ cm/s: `NC(=O)[C@@H](CCC(F)(F)F)N(C[C@H]1CCCCO1)S(=O)(=O)c1ccc(Cl)cc1`
False

Determine whether this compound has Papp A→B no lower than 20 ×10⁻⁶ cm/s: `NC(=O)[C@@H](CCC(F)(F)F)N(C[C@@H]1CCO1)S(=O)(=O)c1ccc(Cl)cc1`
True

Determine whether this compound has Papp A→B no lower than 20 ×10⁻⁶ cm/s: `NC(=O)[C@@H](CCC(F)(F)F)N(CC1COC1)S(=O)(=O)c1ccc(Cl)cc1`
True

Determine whether this compound has Papp A→B no lower than 20 ×10⁻⁶ cm/s: `NC(=O)[C@@H](CCC(F)(F)F)N(C[C@H]1CCO1)S(=O)(=O)c1ccc(Cl)cc1`
True

Determine whether this compound has Papp A→B no lower than 20 ×10⁻⁶ cm/s: `C[C@H]1C[C@@H](CN([C@H](CCC(F)(F)F)C(N)=O)S(=O)(=O)c2ccc(Cl)cc2)O1`
True

Determine whether this compound has Papp A→B no lower than 20 ×10⁻⁶ cm/s: `CC1(C)CO[C@@H]1CN([C@H](CCC(F)(F)F)C(N)=O)S(=O)(=O)c1ccc(Cl)cc1`
True

Hey, just so you know, these numbers are from ChEMBL document CHEMBL1914442.
